// pIC50 lookup, one value per entry
biological target: human PDE4D3 (Homo sapiens (Human), UniProt Q08499); assay: PDE4D3 Scintillation Proximity Assay (SPA), inhibition of enzyme activity; type: biochemical; conditions: Table 9, geometric mean of 2-9 determinations unless otherwise indicated, read-out: Human PDE4D FL
Sequence (Q08499 186-808): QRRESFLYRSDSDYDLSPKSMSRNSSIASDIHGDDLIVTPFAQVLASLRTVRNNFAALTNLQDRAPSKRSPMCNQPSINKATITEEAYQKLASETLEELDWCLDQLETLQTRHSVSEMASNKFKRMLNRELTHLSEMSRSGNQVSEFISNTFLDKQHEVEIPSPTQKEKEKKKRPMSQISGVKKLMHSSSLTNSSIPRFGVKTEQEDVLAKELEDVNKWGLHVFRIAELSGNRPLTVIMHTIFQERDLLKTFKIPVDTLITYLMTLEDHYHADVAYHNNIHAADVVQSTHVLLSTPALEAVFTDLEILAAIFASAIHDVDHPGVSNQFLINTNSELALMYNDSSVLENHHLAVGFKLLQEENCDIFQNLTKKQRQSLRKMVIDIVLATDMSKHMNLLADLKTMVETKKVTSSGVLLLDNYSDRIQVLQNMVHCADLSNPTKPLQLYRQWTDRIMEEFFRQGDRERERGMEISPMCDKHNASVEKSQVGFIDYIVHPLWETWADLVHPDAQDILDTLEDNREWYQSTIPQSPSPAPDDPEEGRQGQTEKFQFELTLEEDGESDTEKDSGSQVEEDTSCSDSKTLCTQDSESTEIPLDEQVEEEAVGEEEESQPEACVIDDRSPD
Interpret pIC50 as the negative base-10 log of the concentration measured in mol/L.

Here's what some known entries look like.
COMPOUND	pIC50
Cc1cc(Cl)ccc1-c1c2n(c3cccnc13)CCN(C1CC1)C2=O	6.60
Cc1cc(N2CCn3c(c(-c4ccc(Cl)cc4)c4ncccc43)C2=O)no1	7.42
O=C1c2c(-c3ccc(F)c(Cl)c3)c3ncccc3n2CCN1C1CC1	7.55
O=C1c2c(-c3cc(F)ccc3F)c3ncccc3n2CCN1C1CC1	6.69
O=C1c2c(-c3ccc(Cl)c(F)c3)c3ncncc3n2CCN1C1CC1	6.80

Any idea what its pIC50 is? The compound is "CN1CCn2c(c(-c3ccc(Cl)cc3)c3ncccc32)C1=O" 6.10

Param item = N#Cc1ccc(-c2c3n(c4cccnc24)CC2CCCN2C3=O)cc1 (centres unmarked) ; retrieve measured pIC50. 5.79

###

molecular target: Human PDE4B1 (Homo sapiens (Human), UniProt Q07343, S133E/S654A/S659A/S661A); test: PDE4B1 Scintillation Proximity Assay (SPA), inhibition of enzyme activity; assay type: biochemical; conditions: Table 9, geometric mean of 2-9 determinations unless otherwise indicated, read-out: Human PDE4B FL
Sequence (Q07343 122-736 S133E/S654A/S659A/S661A): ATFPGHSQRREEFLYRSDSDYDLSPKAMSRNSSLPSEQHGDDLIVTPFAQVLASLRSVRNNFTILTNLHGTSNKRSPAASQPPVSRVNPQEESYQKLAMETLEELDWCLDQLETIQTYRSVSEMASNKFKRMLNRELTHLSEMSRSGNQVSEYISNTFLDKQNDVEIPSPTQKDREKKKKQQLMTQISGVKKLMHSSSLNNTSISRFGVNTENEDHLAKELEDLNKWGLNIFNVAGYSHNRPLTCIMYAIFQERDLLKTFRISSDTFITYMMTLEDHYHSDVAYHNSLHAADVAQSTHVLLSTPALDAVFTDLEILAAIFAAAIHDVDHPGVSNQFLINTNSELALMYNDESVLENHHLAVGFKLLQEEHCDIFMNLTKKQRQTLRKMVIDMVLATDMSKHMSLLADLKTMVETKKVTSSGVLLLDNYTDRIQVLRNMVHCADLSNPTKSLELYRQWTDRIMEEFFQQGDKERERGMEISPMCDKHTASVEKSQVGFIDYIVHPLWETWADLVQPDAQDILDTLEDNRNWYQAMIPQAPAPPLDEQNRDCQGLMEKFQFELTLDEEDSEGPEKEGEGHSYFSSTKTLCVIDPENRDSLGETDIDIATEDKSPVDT
PARAMETER_MEASURED: IC50

COMPOUND	PARAMETER_MEASURED	REPORTED
Cc1ccc(-c2c3ncccc3n3ccn(C4CC4)c(=O)c23)cc1	IC50	2.7 nM
O=C1c2c(-c3ccc(Cl)cc3)c3ncccc3n2CC2CCN12 (single isomer, unassigned) [Example 69]	IC50	16.3 nM
Cc1ccc(-c2c3n(c4cccnc24)CCN(C2CC2)C3=O)c(C)c1	IC50	6.7 nM
O=C1c2c(-c3ccsc3)c3ncccc3n2CCN1C1CC1	IC50	78.7 nM
O=C1c2c(-c3ccc(F)cn3)c3ncccc3n2CCN1C1CC1	IC50	332 nM
Cc1cc(C#N)ccc1-c1c2n(c3cccnc13)CCN(C1CC1)C2=O	IC50	6.9 nM
Cc1cc(Cl)ccc1-c1c2n(c3cccnc13)CCN(c1ncccn1)C2=O	IC50	25.2 nM
N#Cc1ccc(-c2c3n(c4scnc24)CCN(C2CC2)C3=O)cc1F	IC50	4.36 nM
O=C1c2c(-c3ccc(Cl)cc3)c3c(n2CCN1C1CC1)CCCO3	IC50	3.99 nM
Cc1cc(N2CCn3c(c(-c4ccc(Cl)cc4)c4ncccc43)C2=O)no1	IC50	3.81 nM

What does the record list as IC50 for "COc1ccc(-c2c3n(c4cccnc24)CCN(C2CC2)C3=O)cc1" ? 6.37 nM

Give its IC50 value. Item: "Cc1ccc(C#N)cc1-c1c2n(c3cccnc13)CCN(C1CC1)C2=O" 11.2 nM

Tell me the measured IC50 of "O=C1c2c(-c3ccc(F)cc3)c3ncccc3n2CCN1C1CC1" , please. 3.13 nM

Entry under review: "O=C1c2c(-c3ccc(Cl)cc3)c3ccccc3n2CCN1C1CC1" . Reported IC50? 19.2 nM

###

target: Human PDE4B1 (Homo sapiens (Human), UniProt Q07343, S133E/S654A/S659A/S661A); assay: PDE4B1 Scintillation Proximity Assay (SPA), inhibition of enzyme activity; type: biochemical; details: Table 9, geometric mean of 2-9 determinations unless otherwise indicated, read-out: Human PDE4B FL
The following molecules are shown together with reported IC50 values.

Sample answers from the record:
SMILES_STRUCTURE	STUDY_SYSTEM	PARAMETER_MEASURED	REPORTED
O=C1c2c(-c3ccc(Cl)c(F)c3)c3c(n2CCN1C1CC1)CCCO3	Human PDE4B1 (Homo sapiens (Human), UniProt Q07343, S133E/S654A/S659A/S661A)	IC50	< 0.55 nM
O=C1c2c(-c3ccc(Cl)c(F)c3)c3ncccc3n2CCN1C1CC1	Human PDE4B1 (Homo sapiens (Human), UniProt Q07343, S133E/S654A/S659A/S661A)	IC50	< 0.7 nM

Now turn to the next molecule.
Which IC50 is reported with Human PDE4B1 (Homo sapiens (Human), UniProt Q07343, S133E/S654A/S659A/S661A) for this entry: "O=C1c2c(-c3cc(F)c(F)c(F)c3)c3ncccc3n2CCN1C1CC1" ? < 0.67 nM

###

Collected IC50 values appear next to each entry.
molecular target: Human PDE4B1 (Homo sapiens (Human), UniProt Q07343, S133E/S654A/S659A/S661A); experiment: PDE4B1 Scintillation Proximity Assay (SPA), inhibition of enzyme activity; format: biochemical; settings: Table 9, geometric mean of 2-9 determinations unless otherwise indicated, read-out: Human PDE4B FL

SMILES_STRUCTURE	IC50
O=C1c2c(-c3ccc(F)c(Cl)c3)c3ncccc3n2CCN1C1CC1	< 1.1 nM
C[C@H]1Cn2c(c(-c3ccc(Cl)cc3)c3ncccc32)C(=O)N1C1CC1	< 0.52 nM
N#Cc1ccc(-c2c3n(c4cccnc24)CCN(C2CC2)C3=O)cc1F	< 0.81 nM
O=C1c2c(-c3cccc(Cl)c3)c3ncccc3n2CCN1C1CC1	< 0.72 nM
O=C1c2c(-c3ccc(Cl)c(F)c3)c3nccnc3n2CCN1C1CC1	< 1.27 nM

Please find the next compound below.
Recorded IC50 of "O=C1c2c(-c3ccc(Cl)cc3)c3ncccc3n2CCN1C1CC1" , please. < 0.42 nM

###

biological target: Human PDE4C1 (Homo sapiens (Human)); test: PDE4C1 Scintillation Proximity Assay (SPA), inhibition of enzyme activity; type: biochemical; conditions: Table 9, geometric mean of 2-9 determinations unless otherwise indicated, read-out: Human PDE4C FL
Sequence (Q08493 2-712): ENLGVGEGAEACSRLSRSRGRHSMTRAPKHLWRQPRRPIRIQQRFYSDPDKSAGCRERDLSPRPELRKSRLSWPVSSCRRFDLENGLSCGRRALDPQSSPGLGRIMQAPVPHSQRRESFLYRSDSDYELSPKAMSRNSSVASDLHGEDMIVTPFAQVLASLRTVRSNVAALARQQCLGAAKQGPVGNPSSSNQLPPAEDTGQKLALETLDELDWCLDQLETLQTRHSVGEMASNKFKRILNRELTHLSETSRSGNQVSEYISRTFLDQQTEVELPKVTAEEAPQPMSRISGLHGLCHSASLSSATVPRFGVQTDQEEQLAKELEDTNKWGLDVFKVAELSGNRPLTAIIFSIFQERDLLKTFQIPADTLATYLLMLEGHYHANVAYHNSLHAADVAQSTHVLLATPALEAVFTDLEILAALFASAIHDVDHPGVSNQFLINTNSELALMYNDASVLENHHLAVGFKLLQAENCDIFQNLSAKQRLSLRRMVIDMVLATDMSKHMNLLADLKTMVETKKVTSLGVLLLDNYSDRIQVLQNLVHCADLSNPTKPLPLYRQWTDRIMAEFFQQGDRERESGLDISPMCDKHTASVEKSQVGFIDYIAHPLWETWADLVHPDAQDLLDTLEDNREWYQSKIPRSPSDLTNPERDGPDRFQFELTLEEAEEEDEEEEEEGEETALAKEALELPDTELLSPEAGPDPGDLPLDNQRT
PARAMETER_MEASURED: IC50 (nM)
Response body: numeric value in nM, unit text excluded.

MOLECULE	UNIT_INFO	REPORTED
N#Cc1ccc(-c2c3ncccc3n3ccn(C4CC4)c(=O)c23)cc1 [Example 70]	nM	8.55
O=C1c2c(-c3ccc(Cl)c(F)c3)c3ncncc3n2CCN1C1CC1 [Example 7]	nM	71.4

Attention now turns to another entry.
Which IC50 is reported for this molecule? O=C1c2c(-c3cccc(F)c3)c3ncccc3n2CCN1C1CC1 [Example 41] 9.22

###

target: human PDE4D3 (Homo sapiens (Human)); test: PDE4D3 Scintillation Proximity Assay (SPA), inhibition of enzyme activity; type: biochemical; conditions: Table 9, geometric mean of 2-9 determinations unless otherwise indicated, read-out: Human PDE4D FL
Where a name gives a salt, the structure may show the parent alone.
Let's look at some compounds and their measured pIC50.
To interpret pIC50, take it as minus log10 of a concentration measured in moles per litre.

Guide cases for pIC50, answers given:
COMPOUND	PARAMETER_MEASURED	REPORTED
O=C1c2c(-c3ccc(Cl)c(F)c3)c3c(n2CCN1C1CC1)CCCO3 [Example 76]	pIC50	7.67
CCCN1CCn2c(c(-c3ccc(Cl)cc3)c3ncccc32)C1=O [Example 17]	pIC50	7.09
O=C1c2c(-c3ccc(F)cc3)c3ncccc3n2CCN1C1CC1 [Example 23]	pIC50	6.49
O=C1c2c(-c3ccc(Cl)cc3)c3ncccc3n2C[C@H]2CCCN12 [Example 3, trifluoroacetate salt]	pIC50	6.82
N#Cc1ccc(-c2c3n(c4cccnc24)CCN(C2CC2)C3=O)cn1 [Example 26]	pIC50	6.86
Cc1ccc(C#N)cc1-c1c2n(c3cccnc13)CCN(C1CC1)C2=O [Example 60]	pIC50	6.40

Pending compound:
Give its pIC50 value. Item: O=C1c2c(-c3ccccc3)c3ncccc3n2CCN1C1CC1 [Example 42] 5.98

###

target: Human PDE4B1 (Homo sapiens (Human), UniProt Q07343, S133E/S654A/S659A/S661A); test: PDE4B1 Scintillation Proximity Assay (SPA), inhibition of enzyme activity; type: biochemical; conditions: Table 9, geometric mean of 2-9 determinations unless otherwise indicated, read-out: Human PDE4B FL
Property: log10 IC50; scope: individual molecules
Hi team, quick reminder: these entries are log10 of IC50 (nM).

Recorded results for 4 molecules are shown here.
MOLECULE	STUDY_SYSTEM	log10 IC50
O=C1c2c(-c3ccc(Cl)cc3)c3ncccc3n2CC2COCCN12 (stereo not shown)	Human PDE4B1 (Homo sapiens (Human), UniProt Q07343, S133E/S654A/S659A/S661A)	1.51
Cc1cc(Cl)ccc1-c1c2n(c3cccnc13)CCN(C1CC1)C2=O	Human PDE4B1 (Homo sapiens (Human), UniProt Q07343, S133E/S654A/S659A/S661A)	0.74
COc1c(F)cc(-c2c3n(c4cccnc24)CCN(C2CC2)C3=O)cc1F	Human PDE4B1 (Homo sapiens (Human), UniProt Q07343, S133E/S654A/S659A/S661A)	0.47
CN1CCn2c(c(-c3ccc(Cl)cc3)c3ncccc32)C1=O	Human PDE4B1 (Homo sapiens (Human), UniProt Q07343, S133E/S654A/S659A/S661A)	1.45

Form field: reported log10 IC50 of "COc1cc(-c2c3n(c4cccnc24)CCN(C2CC2)C3=O)c(F)cc1Cl" 0.84

GET /values?readout=log10 IC50&item= "O=C1c2c(-c3cncc(Cl)c3)c3ncccc3n2CCN1C1CC1" 1.42

Values were extracted from patent US11472805B2.
